- SYSTEM_NAME: CYP2C9 (Homo sapiens, UniProt P11712)
- Sequence (P11712 whole entry): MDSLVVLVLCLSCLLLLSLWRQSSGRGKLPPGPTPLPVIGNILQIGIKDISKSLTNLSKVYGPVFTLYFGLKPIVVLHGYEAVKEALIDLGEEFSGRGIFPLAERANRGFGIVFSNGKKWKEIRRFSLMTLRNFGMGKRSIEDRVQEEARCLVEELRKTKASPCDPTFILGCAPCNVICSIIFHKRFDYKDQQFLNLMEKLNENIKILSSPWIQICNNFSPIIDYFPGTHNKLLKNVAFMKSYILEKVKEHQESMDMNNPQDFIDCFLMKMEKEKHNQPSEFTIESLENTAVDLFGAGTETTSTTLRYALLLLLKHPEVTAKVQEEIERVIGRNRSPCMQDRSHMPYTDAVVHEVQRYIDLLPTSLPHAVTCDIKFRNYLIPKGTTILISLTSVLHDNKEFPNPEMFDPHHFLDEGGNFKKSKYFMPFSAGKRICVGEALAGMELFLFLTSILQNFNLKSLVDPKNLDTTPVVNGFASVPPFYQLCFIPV
- TEST_NAME: Inhibition of CYP2C9 (unknown origin) using tolbutamide as cocktail probe substrate at 10 uM preincubated for 20 mins followed by substrate addition and measured after 20 mins by LC-MS/MS analysis relative to control
- Type: ADME
- CONDITION_SET: time 40 min
QUANTITY_NAME: inhibition at 20 min, 10 µM (%)
Write down the numeric answer in % and omit the unit.

Measured inhibition at 20 min, 10 µM of `Cc1ncc(-c2ccc3nc(NC(=O)C4CC4)sc3c2)cc1NC(=O)OC1CCOCC1` : 62

====

- TEST_NAME: Protein binding in rat plasma by LC-MS/MS based equilibrium dialysis method
- Format: ADME, cell-free
- CONDITION_SET: read-out: PPB (converted)
QUANTITY_NAME: fraction unbound

Record `Cc1ncc(-c2ccc3nc(NC(=O)C4CC4)sc3c2)cc1NC(=O)OC1CCOCC1` . Reported fraction unbound: 0.018

====

- TEST_NAME: Volume of distribution at steady state in Sprague-Dawley rat at 2 mg/kg, iv measured upto 24 hrs by LC-MS/MS analysis
- Format: ADME, organism-based
- CONDITION_SET: in vivo, read-out: Vdss
QUANTITY_NAME: Vd (L/kg)
State the answer as a number, implicitly in L/kg.

// `Cc1ncc(-c2ccc3nc(NC(=O)C4CC4)sc3c2)cc1NC(=O)OC1CCOCC1` : Vd value = 2.4

====

- SYSTEM_NAME: Receptor-interacting serine/threonine-protein kinase 1 (Homo sapiens)
- Sequence (Q13546 whole entry): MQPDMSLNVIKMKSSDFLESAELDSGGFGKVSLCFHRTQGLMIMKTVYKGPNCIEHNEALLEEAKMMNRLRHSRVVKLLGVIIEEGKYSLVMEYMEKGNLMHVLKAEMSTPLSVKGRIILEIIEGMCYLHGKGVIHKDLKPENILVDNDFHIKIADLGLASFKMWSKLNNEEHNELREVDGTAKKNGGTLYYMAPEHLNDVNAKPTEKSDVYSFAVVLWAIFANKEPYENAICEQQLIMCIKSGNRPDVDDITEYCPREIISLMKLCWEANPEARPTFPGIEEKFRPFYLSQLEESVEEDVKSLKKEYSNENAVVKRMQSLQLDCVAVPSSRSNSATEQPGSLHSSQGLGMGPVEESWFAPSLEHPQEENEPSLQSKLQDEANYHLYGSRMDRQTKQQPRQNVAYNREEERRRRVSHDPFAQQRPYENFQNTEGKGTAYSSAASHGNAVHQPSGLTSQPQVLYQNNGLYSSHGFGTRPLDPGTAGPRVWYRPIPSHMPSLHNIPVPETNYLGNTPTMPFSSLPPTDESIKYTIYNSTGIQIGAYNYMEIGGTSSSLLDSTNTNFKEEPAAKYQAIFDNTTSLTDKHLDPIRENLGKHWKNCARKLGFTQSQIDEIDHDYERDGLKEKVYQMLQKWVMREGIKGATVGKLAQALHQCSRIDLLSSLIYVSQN
QUANTITY_NAME: Kd (nM)
A number alone suffices; assume nM.

The reported value for `Cc1ncc(-c2ccc3nc(NC(=O)C4CC4)sc3c2)cc1NC(=O)OC1CCOCC1` in terms of Kd is 9.2

====

- SYSTEM_NAME: UniProt P05177
- Sequence (P05177 whole entry): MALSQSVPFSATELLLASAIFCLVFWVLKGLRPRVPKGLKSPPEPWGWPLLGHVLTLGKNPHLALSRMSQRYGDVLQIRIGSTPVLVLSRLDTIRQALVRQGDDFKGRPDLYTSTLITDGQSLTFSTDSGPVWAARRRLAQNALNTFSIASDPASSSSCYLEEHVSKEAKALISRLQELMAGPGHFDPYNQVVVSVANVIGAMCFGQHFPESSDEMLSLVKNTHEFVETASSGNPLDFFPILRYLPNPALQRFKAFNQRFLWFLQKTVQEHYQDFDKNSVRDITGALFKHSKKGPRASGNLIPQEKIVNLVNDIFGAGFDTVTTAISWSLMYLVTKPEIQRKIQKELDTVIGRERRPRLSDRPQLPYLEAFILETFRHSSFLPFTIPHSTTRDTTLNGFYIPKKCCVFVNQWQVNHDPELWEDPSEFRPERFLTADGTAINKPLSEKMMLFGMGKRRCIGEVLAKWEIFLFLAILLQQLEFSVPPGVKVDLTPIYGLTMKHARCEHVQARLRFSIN
- TEST_NAME: Inhibition of CYP1A2 (unknown origin) using Phenacetin as cocktail probe substrate at 10 uM preincubated for 20 mins followed by substrate addition and measured after 20 mins by LC-MS/MS analysis relative to control
- Format: ADME
- CONDITION_SET: time 40 min
QUANTITY_NAME: inhibition at 20 min, 10 µM (%)
Answer with a number only, understood to be in %.

`Cc1ncc(-c2ccc3nc(NC(=O)C4CC4)sc3c2)cc1NC(=O)OC1CCOCC1` yielded inhibition at 20 min, 10 µM of 16

Data provenance is ChEMBL document CHEMBL5046240.
